Target: monoamine oxidase MAO-B (Homo sapiens, UniProt P27338)
Sequence (P27338 whole entry): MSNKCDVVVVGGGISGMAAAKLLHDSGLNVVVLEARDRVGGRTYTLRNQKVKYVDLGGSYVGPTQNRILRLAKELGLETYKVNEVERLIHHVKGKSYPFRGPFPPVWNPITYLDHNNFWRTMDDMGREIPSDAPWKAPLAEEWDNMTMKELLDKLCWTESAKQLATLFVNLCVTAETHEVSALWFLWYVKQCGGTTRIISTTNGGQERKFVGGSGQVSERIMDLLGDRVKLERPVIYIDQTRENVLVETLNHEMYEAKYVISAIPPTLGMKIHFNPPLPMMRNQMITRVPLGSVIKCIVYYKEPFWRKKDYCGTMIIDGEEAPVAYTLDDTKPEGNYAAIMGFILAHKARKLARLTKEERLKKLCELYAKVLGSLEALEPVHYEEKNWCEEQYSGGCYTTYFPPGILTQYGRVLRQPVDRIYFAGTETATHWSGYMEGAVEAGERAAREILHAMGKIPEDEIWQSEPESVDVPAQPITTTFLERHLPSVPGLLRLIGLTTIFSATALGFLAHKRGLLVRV
Assay: Inhibition of monoamine oxidase MAO-B
Details: recombinant human enzyme expressed in insect Hi5 cells, 50 uM kynuramine
ASSAY_METRIC: IC50

molecule="Fc1cccc(C#Cc2cnc3nccnc3c2)c1 [Example 60]" observed_result="89 nM"
molecule="Fc1ccccc1C#Cc1cnc2nccnc2c1 [Example 61]" observed_result="37 nM"
molecule="C(#Cc1cnc2nc(N3CCCCC3)sc2c1)c1ccccc1 [Example 81]" observed_result="520 nM"
molecule="Fc1ccc(C#Cc2cnc3ncsc3c2)cc1 [Example 46]" observed_result="540 nM"

* * *

Below, each entry is listed with its recorded EC50.
Target: human metabotropic glutamate receptor mGluR5 (Homo sapiens)
Sequence (P41594 21-1212): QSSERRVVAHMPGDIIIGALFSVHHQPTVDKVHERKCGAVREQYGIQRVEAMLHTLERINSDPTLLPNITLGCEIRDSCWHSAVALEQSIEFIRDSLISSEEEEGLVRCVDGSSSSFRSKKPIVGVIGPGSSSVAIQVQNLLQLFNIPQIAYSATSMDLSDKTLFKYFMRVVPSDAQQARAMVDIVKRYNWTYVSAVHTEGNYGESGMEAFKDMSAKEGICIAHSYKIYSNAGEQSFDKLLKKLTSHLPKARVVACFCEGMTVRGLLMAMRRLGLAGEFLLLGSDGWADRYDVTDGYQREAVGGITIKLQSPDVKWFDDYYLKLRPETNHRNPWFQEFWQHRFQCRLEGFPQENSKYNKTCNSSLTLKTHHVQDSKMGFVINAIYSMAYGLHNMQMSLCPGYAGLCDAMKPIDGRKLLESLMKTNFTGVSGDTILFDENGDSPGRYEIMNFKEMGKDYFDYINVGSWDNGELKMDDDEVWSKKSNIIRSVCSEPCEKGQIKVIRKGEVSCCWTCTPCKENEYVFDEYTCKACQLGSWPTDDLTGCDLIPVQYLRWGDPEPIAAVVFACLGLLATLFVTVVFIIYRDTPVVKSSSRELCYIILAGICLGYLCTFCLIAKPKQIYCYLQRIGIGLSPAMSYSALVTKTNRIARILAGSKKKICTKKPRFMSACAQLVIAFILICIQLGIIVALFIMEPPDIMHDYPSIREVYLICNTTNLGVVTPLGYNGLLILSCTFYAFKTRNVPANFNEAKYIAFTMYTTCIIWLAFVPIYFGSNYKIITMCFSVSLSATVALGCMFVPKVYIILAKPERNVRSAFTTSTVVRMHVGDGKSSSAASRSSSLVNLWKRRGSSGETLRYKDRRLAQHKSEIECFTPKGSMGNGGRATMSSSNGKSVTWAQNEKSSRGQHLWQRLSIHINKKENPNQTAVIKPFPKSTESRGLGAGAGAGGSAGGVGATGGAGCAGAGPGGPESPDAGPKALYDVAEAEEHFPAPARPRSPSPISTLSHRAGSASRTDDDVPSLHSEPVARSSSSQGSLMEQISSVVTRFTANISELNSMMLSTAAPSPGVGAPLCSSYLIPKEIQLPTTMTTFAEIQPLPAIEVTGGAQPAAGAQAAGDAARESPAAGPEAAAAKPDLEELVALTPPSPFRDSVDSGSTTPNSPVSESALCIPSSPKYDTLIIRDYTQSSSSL
Experiment: Cytosolic calcium studies with stably transfected cells (CHO-K1)
ASSAY_METRIC: EC50 (nM)

molecule="C(#Cc1cnc2nccnc2c1)C1=CCCCC1 [Example 40]" observed_result=120
molecule="C(#Cc1cnc2nccnc2c1)c1ccccc1 [Example 39, 7-Phenylethynyl-pyrido[2,3-b]pyrazine]" observed_result=35
molecule="Fc1cccc(C#Cc2cnc3cccnc3c2)c1 [Example 67]" observed_result=6.8
molecule="Clc1cccc(C#Cc2cnc3nccnc3c2)c1 [Example 111]" observed_result=120
molecule="C(#Cc1ccc2ccnn2c1)c1ccccc1 [Example 29, 6-Phenylethynyl-pyrazolo[1,5-a]pyridine]" observed_result=78
molecule="Fc1ccc(C#Cc2cnc3ncsc3c2)c(F)c1 [Example 79]" observed_result=310
molecule="Cc1ccc(C#Cc2cnc3ccnn3c2)cc1 [Example 9]" observed_result=77
molecule="O=C(c1nc2ccc(C#Cc3ccc(F)cc3)cn2n1)N1CCCCC1 [Example 59]" observed_result=6900
molecule="C(#Cc1ccc2ncnn2c1)c1ccccc1 [Example 37]" observed_result=110
molecule="C(#Cc1cnc2cccnc2c1)c1ccncc1 [Example 100]" observed_result=230
molecule="Fc1cc(F)cc(C#Cc2cnc3nccnc3c2)c1 [Example 108]" observed_result=4100
molecule="Cc1ccccc1C#Cc1cnc2nccnc2c1 [Example 87, 7-(o-Tolylethynyl)-pyrido[2,3-b]pyrazine]" observed_result=1100
molecule="Fc1ccc(C#Cc2cnc3ncsc3c2)cc1 [Example 46]" observed_result=58
molecule="Fc1ccc(C#Cc2cnc3nccnc3c2)cc1 [Example 62]" observed_result=550
molecule="Fc1cc(F)cc(C#Cc2cnc3ccnn3c2)c1 [Example 11]" observed_result=200
molecule="Clc1cc(Cl)cc(C#Cc2cnc3ccnn3c2)c1 [Example 2]" observed_result=520
molecule="Fc1cccc(C#Cc2cnc3ncnn3c2)c1 [Example 47]" observed_result=1300
molecule="Fc1ccc(C#Cc2cnc3ncnn3c2)cc1 [Example 49]" observed_result=1800
molecule="O=C(c1nc2ccc(C#Cc3cccc(F)c3)cn2n1)N1CCCCC1 [Example 57]" observed_result=1200
molecule="Fc1ccc(C#Cc2cnc3ncoc3c2)cc1 [Example 70]" observed_result=1400
molecule="Cc1cccc(C#Cc2cnc3cccnc3c2)c1 [Example 95, 3-(m-Tolylethynyl)-[1,5]naphthyridine]" observed_result=5.5
molecule="O=C(c1cc2ncc(C#Cc3ccccc3)cn2n1)N1CCCCCC1 [Example 17]" observed_result=260
molecule="C(#Cc1cnc2ncsc2c1)c1ccccc1 [Example 38, 6-Phenylethynyl-thiazolo[4,5-b]pyridine]" observed_result=10
molecule="Cn1cnc2cc(C#Cc3ccc(F)cc3)cnc21 [Example 106]" observed_result=57
molecule="Fc1ccc(C#Cc2cnc3cccnc3c2)cc1 [Example 69]" observed_result=9.8
molecule="C(#Cc1cnc2ncoc2c1)C1=CCCCC1 [Example 71]" observed_result=6.3
molecule="C(#Cc1cnc2ccnn2c1)c1ccccc1 [Example 1]" observed_result=38
molecule="C(#Cc1cnc2nc(N3CCCCC3)sc2c1)c1ccccc1 [Example 81]" observed_result=91
molecule="Fc1ccc(C#Cc2cnc3ccnn3c2)cc1 [Example 4]" observed_result=120
molecule="Cn1cnc2cc(C#Cc3cccc(F)c3)cnc21 [Example 105]" observed_result=21
molecule="Fc1ccccc1C#Cc1cnc2nccnc2c1 [Example 61]" observed_result=300
molecule="Fc1ccccc1C#Cc1cnc2ncsc2c1 [Example 45]" observed_result=65
molecule="Cc1ccc(C#Cc2cnc3cccnc3c2)cc1 [Example 93, 3-(p-Tolylethynyl)-[1,5]naphthyridine]" observed_result=36
molecule="Fc1cccc(C#Cc2ccc3ncnn3c2)c1 [Example 53]" observed_result=430
molecule="Fc1ccc(C#Cc2ccc3ncnn3c2)cc1 [Example 55]" observed_result=640
molecule="C(#Cc1ccc2ccnn2c1)C1=CCCCC1 [Example 30]" observed_result=29
molecule="O=C(c1nc2ncc(C#Cc3ccccc3)cn2n1)N1CCCCC1 [Example 36]" observed_result=940
molecule="Fc1cccc(F)c1C#Cc1cnc2ncsc2c1 [Example 78]" observed_result=1700
molecule="COc1cnc2ncc(C#Cc3ccccc3)cc2n1 [Example 92]" observed_result=280
molecule="Fc1ccccc1C#Cc1cnc2cccnc2c1 [Example 68]" observed_result=19
molecule="Fc1ccc(C#Cc2cnc3nccnc3c2)c(F)c1 [Example 109]" observed_result=3500
molecule="Cc1ccc(C#Cc2cnc3cccnc3c2)c(F)c1 [Example 115]" observed_result=690
